MEASURED_ON: Integrin alpha-IIb/beta-3 (Homo sapiens, UniProt P08514+P05106)
Sequence (P05106 27-788 limits assumed): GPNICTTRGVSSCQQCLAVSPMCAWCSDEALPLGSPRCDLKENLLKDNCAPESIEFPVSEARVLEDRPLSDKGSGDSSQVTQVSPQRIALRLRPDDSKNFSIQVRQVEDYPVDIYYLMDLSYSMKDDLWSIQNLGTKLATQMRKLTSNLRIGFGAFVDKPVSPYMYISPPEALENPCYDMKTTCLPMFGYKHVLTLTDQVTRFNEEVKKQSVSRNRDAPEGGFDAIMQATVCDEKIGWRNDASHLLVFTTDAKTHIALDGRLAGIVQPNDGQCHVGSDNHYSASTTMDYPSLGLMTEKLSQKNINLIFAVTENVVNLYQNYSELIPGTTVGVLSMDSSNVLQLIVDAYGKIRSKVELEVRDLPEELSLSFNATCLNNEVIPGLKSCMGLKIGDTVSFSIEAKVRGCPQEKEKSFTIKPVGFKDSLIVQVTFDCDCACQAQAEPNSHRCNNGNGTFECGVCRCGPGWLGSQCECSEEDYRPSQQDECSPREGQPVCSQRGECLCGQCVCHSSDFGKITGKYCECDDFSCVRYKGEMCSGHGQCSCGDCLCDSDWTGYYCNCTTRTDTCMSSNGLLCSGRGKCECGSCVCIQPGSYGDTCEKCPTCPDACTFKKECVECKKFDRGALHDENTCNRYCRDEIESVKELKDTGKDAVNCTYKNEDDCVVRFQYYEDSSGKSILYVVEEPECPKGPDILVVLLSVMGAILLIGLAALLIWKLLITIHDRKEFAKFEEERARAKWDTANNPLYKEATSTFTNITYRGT
Sequence (P08514 32-887 limits assumed): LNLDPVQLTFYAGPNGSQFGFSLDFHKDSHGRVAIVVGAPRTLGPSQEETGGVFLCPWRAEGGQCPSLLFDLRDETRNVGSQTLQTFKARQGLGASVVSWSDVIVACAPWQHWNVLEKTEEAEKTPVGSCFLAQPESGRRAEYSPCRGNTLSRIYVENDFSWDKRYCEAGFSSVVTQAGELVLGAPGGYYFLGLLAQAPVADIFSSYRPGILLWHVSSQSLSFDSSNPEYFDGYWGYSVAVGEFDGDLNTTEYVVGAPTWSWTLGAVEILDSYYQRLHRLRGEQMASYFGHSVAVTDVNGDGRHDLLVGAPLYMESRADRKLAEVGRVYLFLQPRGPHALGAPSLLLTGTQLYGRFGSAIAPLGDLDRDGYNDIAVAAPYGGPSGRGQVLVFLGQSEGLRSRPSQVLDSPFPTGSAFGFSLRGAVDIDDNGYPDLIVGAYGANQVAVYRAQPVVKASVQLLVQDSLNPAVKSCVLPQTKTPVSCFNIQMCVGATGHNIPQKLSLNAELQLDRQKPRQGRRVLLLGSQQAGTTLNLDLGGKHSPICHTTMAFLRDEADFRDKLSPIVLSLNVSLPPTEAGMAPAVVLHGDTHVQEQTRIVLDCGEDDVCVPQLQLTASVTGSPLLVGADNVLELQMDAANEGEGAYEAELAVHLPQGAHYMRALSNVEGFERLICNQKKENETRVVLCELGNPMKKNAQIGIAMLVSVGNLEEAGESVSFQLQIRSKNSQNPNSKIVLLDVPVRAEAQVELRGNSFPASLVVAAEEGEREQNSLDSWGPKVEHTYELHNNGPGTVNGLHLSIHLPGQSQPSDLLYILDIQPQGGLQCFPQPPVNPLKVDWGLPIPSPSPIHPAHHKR
Sequence (P08514 891-1039 limits assumed): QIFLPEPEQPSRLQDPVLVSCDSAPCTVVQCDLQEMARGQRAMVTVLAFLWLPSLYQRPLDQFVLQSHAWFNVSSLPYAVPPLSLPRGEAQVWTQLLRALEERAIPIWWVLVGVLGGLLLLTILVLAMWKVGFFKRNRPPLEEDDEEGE
METHOD_NOTES: Inhibition of thrombin-induced platelet aggregation assay at 20 uM
pIC50: −log10 of the molar value.
Examples of molecules with documented pIC50 follow.

>  <SMILES_DATA>
C[C@@H](CC(=O)O)N1CC(=O)N(C)c2ccc(C#Cc3ccc(C(=N)N)cc3)cc2C1=O

>  <pIC50>
6.86

$$$$
>  <SMILES_DATA>
C[C@@H](CC(=O)O)N1CC(=O)N(C)c2c(Cl)cc(C#Cc3ccc(C(=N)N)cc3)cc2C1=O

>  <pIC50>
6.50

$$$$
>  <SMILES_DATA>
CN1C(=O)CN(CCC(=O)O)C(=O)c2cc(C#Cc3ccc(C(=N)N)cc3)ccc21

>  <pIC50>
6.67

$$$$
>  <SMILES_DATA>
C[C@@H](CC(=O)O)N1CC(=O)N(C(C)(C)C)c2c(Cl)cc(C#Cc3ccc(C(=N)N)cc3)cc2C1=O

>  <pIC50>
7.22

$$$$

Cited source for all entries: BindingDB's records for doi:10.1021/jm960652r
